# Test name: AUC (0 to 24 hrs) in CD-1 mouse at […] administered through gavage
# Format: ADME, organism-based
# Condition parameters: plasma, po
Outcome measure: AUC(0-t) (ng·h/mL)
One number for each entry, in ng·h/mL.

Consider the molecule COc1c(N2C[C@@H]3CCCN[C@@H]3C2)c(F)cc2c(=O)c(C(=O)O)cn(C3CC3)c12 and give its measured AUC(0-t). 27400

###

# Test name: AUC in human at 400 mg, po
# Assay type: ADME, organism-based
# Condition parameters: plasma
Outcome measure: AUC (ng·h/mL)
Answers are plain numbers, in ng·h/mL.

Consider the compound COc1c(N2C[C@@H]3CCCN[C@@H]3C2)c(F)cc2c(=O)c(C(=O)O)cn(C3CC3)c12 and give its measured AUC. 26900
